# System under test: Coagulation Factor Xa, from uman plasma (Homo sapiens, UniProt P00742)
# Sequence (P00742 235-488 limits assumed): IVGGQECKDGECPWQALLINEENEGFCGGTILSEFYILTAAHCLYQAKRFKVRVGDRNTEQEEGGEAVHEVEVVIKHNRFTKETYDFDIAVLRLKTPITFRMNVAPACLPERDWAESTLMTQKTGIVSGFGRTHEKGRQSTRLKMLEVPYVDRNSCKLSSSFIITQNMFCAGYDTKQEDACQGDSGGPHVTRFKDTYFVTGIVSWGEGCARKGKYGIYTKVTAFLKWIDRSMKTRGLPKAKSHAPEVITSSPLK
# Sequence (P00742 41-179 limits assumed): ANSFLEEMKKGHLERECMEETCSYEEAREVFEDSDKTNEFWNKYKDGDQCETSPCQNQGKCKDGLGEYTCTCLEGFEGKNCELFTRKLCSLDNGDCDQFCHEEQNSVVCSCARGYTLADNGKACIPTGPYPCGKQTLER
# Method description: Enzymatic assay, coagulation factor Xa
Where a SMILES comes first, the peptide text is derived from it.
I'd appreciate it if you could supply FXa at 100 μM % values for the items below.
One number for each entry, in %.

compound="CCCC[C@@H]1NC(=O)[C@@H]2CCCN2C(=O)[C@H]2CCCN2C(=O)[C@H](Cc2ccc(O)cc2)NC(=O)[C@@H]2CSSC[C@H](NC1=O)C(=O)N[C@@H]([C@@H](C)O)C(=O)N[C@@H](C)C(=O)N[C@@H](CO)C(=O)N[C@@H](CC1CCCCC1)C(=O)N1CCC[C@H]1C(=O)N1CCC[C@H]1C(=O)N[C@@H](CCC(N)=O)C(=O)N2 [Ex. 141] (HELM PEPTIDE1{[Nle].C.T.A.S.[Cha].P.P.Q.C.Y.[dP].P}$PEPTIDE1,PEPTIDE1,2:R3-10:R3|PEPTIDE1,PEPTIDE1,1:R1-13:R2$$$V2.0)" numeric_value=15.3

Ask: FXa at 100 μM % for CC[C@H](C)[C@@H]1NC(=O)[C@@H]2CCCN2C(=O)[C@@H]2CCCN2C(=O)[C@H](CC(=O)O)NC(=O)[C@H](CO)NC(=O)[C@H](CCCCN)NC(=O)[C@H]([C@@H](C)O)NC(=O)[C@@H]2CSSC[C@H](NC1=O)C(=O)N[C@@H](CO)C(=O)N1CCC[C@@H]1C(=O)N1CCC[C@H]1C(=O)N[C@@H](Cc1ccccc1)C(=O)N2 [Ex. 4] (HELM PEPTIDE1{F.C.T.K.S.D.P.P.I.C.S.[dP].P}$PEPTIDE1,PEPTIDE1,2:R3-10:R3|PEPTIDE1,PEPTIDE1,1:R1-13:R2$$$V2.0) ?
Result: 2.4
